# assay-summary: Hemolytic activity in Red blood cells (unknown origin) assessed as hemolytic rate at 1280 ug/ml relative to control
# Format: toxicity, cell-based, Erythrocyte
# condition-description: at 1280 µg/mL, read-out: Activity
measured-quantity: hemolysis at 1280 ug/ml

(Q) Sample `CCCCCCCC[N+](C)(C)CCCCOc1cc(OCCCC[N+](C)(C)CCCCCCCC)cc(OCCCC[N+](C)(C)CCCCCCCC)c1.[Br-].[Br-].[Br-]` — what was its hemolysis at 1280 ug/ml?
(A) < 5%

====

# assay-summary: Hemolytic activity in sheep red blood cells measured after 1 hr incubation
# Format: toxicity, cell-based, Ovis aries, Erythrocyte
measured-quantity: HC50 at 1 h

1. C[N+](C)(CCCCCOc1ccccc1)CCCOc1cc(OCCC[N+](C)(C)CCCCCOc2ccccc2)cc(OCCC[N+](C)(C)CCCCCOc2ccccc2)c1.[Br-].[Br-].[Br-] : > 1280 µg/mL
2. C[N+](C)(CCCCOc1cc(OCCCC[N+](C)(C)CCCOc2ccccc2)cc(OCCCC[N+](C)(C)CCCOc2ccccc2)c1)CCCOc1ccccc1.[Br-].[Br-].[Br-] : > 1280 µg/mL
3. CCCC[N+](C)(C)CCCCCOc1cc(OCCCCC[N+](C)(C)CCCC)cc(OCCCCC[N+](C)(C)CCCC)c1.[Br-].[Br-].[Br-] : > 1280 µg/mL
4. C[N+](C)(CCCCOc1ccccc1)CCCCOc1cc(OCCCC[N+](C)(C)CCCCOc2ccccc2)cc(OCCCC[N+](C)(C)CCCCOc2ccccc2)c1.[Br-].[Br-].[Br-] : > 1280 µg/mL
5. CCCCCCCCCCCC[N+](C)(C)CCCCCOc1cc(OCCCCC[N+](C)(C)CCCCCCCCCCCC)cc(OCCCCC[N+](C)(C)CCCCCCCCCCCC)c1.[Br-].[Br-].[Br-] : 12 µg/mL

Okay, next one:
(Q) Sample `CCCCCC[N+](C)(C)CCCCCOc1cc(OCCCCC[N+](C)(C)CCCCCC)cc(OCCCCC[N+](C)(C)CCCCCC)c1.[Br-].[Br-].[Br-]` — what was its HC50 at 1 h?
(A) > 1280 µg/mL

====

# assay-summary: Hemolytic activity in sheep red blood cells measured after 1 hr incubation
# Format: toxicity, cell-based, Ovis aries, Erythrocyte
measured-quantity: HC50 at 1 h

Recorded HC50 at 1 h, per entry:
1. CN[C@H](CC(C)C)C(=O)N[C@H]1C(=O)N[C@@H](CC(N)=O)C(=O)N[C@H]2C(=O)N[C@H]3C(=O)N[C@H](C(=O)N[C@H](C(=O)O)c4cc(O)cc(O)c4-c4cc3ccc4O)[C@H](O)c3ccc(c(Cl)c3)Oc3cc2cc(c3O[C@@H]2O[C@H](CO)[C@@H](O)[C@H](O)[C@H]2O[C@H]2C[C@](C)(N)[C@H](O)[C@H](C)O2)Oc2ccc(cc2Cl)[C@H]1O : 805 µg/mL
2. C[N+](C)(CCCOc1cc(OCCC[N+](C)(C)CCCc2ccccc2)cc(OCCC[N+](C)(C)CCCc2ccccc2)c1)CCCc1ccccc1.[Br-].[Br-].[Br-] : > 1280 µg/mL
3. CCCCCCCC[N+](C)(C)CCCOc1cc(OCCC[N+](C)(C)CCCCCCCC)cc(OCCC[N+](C)(C)CCCCCCCC)c1.[Br-].[Br-].[Br-] : > 1280 µg/mL

(Q) Sample `C[N+](C)(CCCOc1ccccc1)CCCOc1cc(OCCC[N+](C)(C)CCCOc2ccccc2)cc(OCCC[N+](C)(C)CCCOc2ccccc2)c1.[Br-].[Br-].[Br-]` — what was its HC50 at 1 h?
(A) > 1280 µg/mL

(Q) Sample `C[N+](C)(CCCCc1ccccc1)CCCOc1cc(OCCC[N+](C)(C)CCCCc2ccccc2)cc(OCCC[N+](C)(C)CCCCc2ccccc2)c1.[Br-].[Br-].[Br-]` — what was its HC50 at 1 h?
(A) > 1280 µg/mL

(Q) Sample `CCCCCCNC(=O)C[N+](C)(C)CCCCCCCCCCCC[N+](C)(C)CC(=O)NCCCCCC.[Br-].[Br-]` — what was its HC50 at 1 h?
(A) > 1280 µg/mL

(Q) Sample `CCCCCCCC[N+](C)(C)CCCCOc1cccc(OCCCC[N+](C)(C)CCCCCCCC)c1OCCCC[N+](C)(C)CCCCCCCC.[Br-].[Br-].[Br-]` — what was its HC50 at 1 h?
(A) 847 µg/mL

(Q) Sample `C[N+](C)(CCCCOc1cc(OCCCC[N+](C)(C)CCCCc2ccccc2)cc(OCCCC[N+](C)(C)CCCCc2ccccc2)c1)CCCCc1ccccc1.[Br-].[Br-].[Br-]` — what was its HC50 at 1 h?
(A) > 1280 µg/mL

(Q) Sample `C[N+](C)(CCCCCOc1ccccc1)CCCCCOc1cc(OCCCCC[N+](C)(C)CCCCCOc2ccccc2)cc(OCCCCC[N+](C)(C)CCCCCOc2ccccc2)c1.[Br-].[Br-].[Br-]` — what was its HC50 at 1 h?
(A) > 1280 µg/mL

(Q) Sample `CCCCCCCCCCCC[N+](C)(C)CCCCOc1cc(OCCCC[N+](C)(C)CCCCCCCCCCCC)cc(OCCCC[N+](C)(C)CCCCCCCCCCCC)c1.[Br-].[Br-].[Br-]` — what was its HC50 at 1 h?
(A) 11 µg/mL

(Q) Sample `C[N+](C)(CCCCOc1cc(OCCCC[N+](C)(C)CCCc2ccccc2)cc(OCCCC[N+](C)(C)CCCc2ccccc2)c1)CCCc1ccccc1.[Br-].[Br-].[Br-]` — what was its HC50 at 1 h?
(A) > 1280 µg/mL

(Q) Sample `C[N+](C)(CCCCCOc1cc(OCCCCC[N+](C)(C)CCCc2ccccc2)cc(OCCCCC[N+](C)(C)CCCc2ccccc2)c1)CCCc1ccccc1.[Br-].[Br-].[Br-]` — what was its HC50 at 1 h?
(A) > 1280 µg/mL

(Q) Sample `CCCCCCCCCC[N+](C)(C)CCCCOc1cc(OCCCC[N+](C)(C)CCCCCCCCCC)cc(OCCCC[N+](C)(C)CCCCCCCCCC)c1.[Br-].[Br-].[Br-]` — what was its HC50 at 1 h?
(A) 34 µg/mL

(Q) Sample `C[N+](C)(CCCCCOc1ccccc1)CCCCOc1cc(OCCCC[N+](C)(C)CCCCCOc2ccccc2)cc(OCCCC[N+](C)(C)CCCCCOc2ccccc2)c1.[Br-].[Br-].[Br-]` — what was its HC50 at 1 h?
(A) > 1280 µg/mL

(Q) Sample `CCCCCCCC[N+](C)(C)CCCCCOc1cc(OCCCCC[N+](C)(C)CCCCCCCC)cc(OCCCCC[N+](C)(C)CCCCCCCC)c1.[Br-].[Br-].[Br-]` — what was its HC50 at 1 h?
(A) 711 µg/mL

(Q) Sample `C[N+](C)(CCCCCOc1cc(OCCCCC[N+](C)(C)CCCCc2ccccc2)cc(OCCCCC[N+](C)(C)CCCCc2ccccc2)c1)CCCCc1ccccc1.[Br-].[Br-].[Br-]` — what was its HC50 at 1 h?
(A) > 1280 µg/mL
